The reported measurements were obtained from PubChem BioAssay.

system: transactivating tegument protein VP16 (Human herpesvirus 1); test: VP16 transactivation reporter inhibitors, counter-screen for SRC2 inhibitor project, cell-based, luminescence, single concentration (AID 652007); conditions: cell-based VP16 transactivation luciferase reporter, at 8.9 µM, hits give high values
Activity calls are given as the source filed them. Cut-off read from the data, not from the text of the source: active = inhibition above about 36%; inactive = the rest.
Overview of recorded inhibition for various compounds

[[record]]
compound = "CC(=O)c1c(C)[nH]c(C(=O)Nc2ccc(N3CCCCCC3)cc2)c1C"
study_target = "transactivating tegument protein VP16 (Human herpesvirus 1)"
value = "-41.5% (inactive)"

[[record]]
compound = "Cc1ccc(S(=O)(=O)N2[C@@H](c3ccc4c(c3)OCO4)C(C(=O)O)=C[C@H]2C(C)(C)C)cc1"
study_target = "transactivating tegument protein VP16 (Human herpesvirus 1)"
value = "-12.9% (inactive)"

[[record]]
compound = "Cc1cc2sc3ccc(C#CC4(O)CCCCC4)cc3c(=O)c2cc1C"
study_target = "transactivating tegument protein VP16 (Human herpesvirus 1)"
value = "94.2% (active)"

[[record]]
compound = "COc1ccc(CN2C[C@H](COCc3ccccc3)Oc3cccc(N4CCCC4)c3S2(=O)=O)cc1"
study_target = "transactivating tegument protein VP16 (Human herpesvirus 1)"
value = "-11% (inactive)"


Attention now shifts to the item below.
Query: What does the record list as inhibition for `COc1cccc(Nc2nc(NCCO)c3ccccc3n2)c1` ?
Response: -14.1% (inactive)

###

assay: growth loss of phage-infected E. coli expressing H. pylori AddAB, confirmation, AddAB inhibitor project, absorbance, E. coli V3065, T4 phage, triplicate (AID 488942); conditions: OD, at 11.9 µM, hits give high values, T4 phage with gene 2 nonsense mutations;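 note: higher means less bacterial growth since AddAB block lets phage replicate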
The other results are listed elsewhere or left out.
endpoint_name: inhibition (%)
Give the number; % is assumed, so skip it.

Worked cases, answers included:
[[record]]
compound = "CC(=O)c1c(C)n([O-])c2ccccc2[n+]1=O"
endpoint_name = "inhibition"
value = 100

[[record]]
compound = "C=CC1=C(C(=O)O)N2C(=O)[C@@H](NC(=O)/C(=N\\OCC(=O)O)c3csc(N)n3)[C@H]2SC1"
endpoint_name = "inhibition"
value = 103

[[record]]
compound = "C=CC1=C(C(=O)O)N2C(=O)[C@@H](NC(=O)/C(=N/OCC(=O)O)c3csc(N)n3)[C@H]2SC1"
endpoint_name = "inhibition"
value = 102


Query: What does the record list as inhibition for `C/[N+]([O-])=C\c1ccc([N+](=O)[O-])o1` ?
Response: 101

Query: And then `CN(C)[C@@H]1C(=O)C(C(N)=O)=C(O)[C@@]2(O)C(=O)C3=C(O)c4c(O)ccc(Cl)c4[C@@H](O)[C@H]3C[C@@H]12` , what is it?
Response: 102

Query: And then `CC(C)(C)NC(=O)COC(=O)c1cc(Cl)ccc1[N+](=O)[O-]` , what is it?
Response: -4.38

Query: And then `O=C(Nc1ccc(Br)cn1)c1ccc([N+](=O)[O-])o1` , what is it?
Response: 99.3

Query: And then O=C(NCC1CCCO1)C(C(=O)c1ccccc1)n1cc(Cl)ccc1=O (configuration not stated) , what is it?
Response: -2.76

Query: And then `Nc1nonc1-n1nnc(C(=O)N/N=C/c2cc(Br)ccc2O)c1CSC1=NCCS1` , what is it?
Response: 14.2

Query: And then `CCN1/C(=C\c2ccc3ccccc3[n+]2CC)Sc2cc(C)ccc21` , what is it?
Response: 34.1

Query: And then CC1=C(C(=O)OCc2ccccc2)C(c2ccco2)n2ncnc2N1 (configuration not stated) , what is it?
Response: 0.55

Query: And then `CC(=O)N(O)CCCCCNC(=O)CCC(=O)N(O)CCCCCNC(=O)CCC(=O)N(O)CCCCCNC(=O)CCC(=O)O` , what is it?
Response: 13.8

Query: And then `CN1CCN(c2cc3c(cc2F)c(=O)c(C(=O)O)cn3CCF)CC1` , what is it?
Response: 103

Query: And then Cc1cn(C2C=CC(CO)O2)c(=O)[nH]c1=O (configuration not stated) , what is it?
Response: 83.8

Query: And then `COC(=O)N/N=C/c1c[n+]([O-])c2ccccc2[n+]1[O-]` , what is it?
Response: 94.5

Query: And then O=C1c2ccccc2NC(c2ccc(-c3cccc(Cl)c3)o2)N1O (configuration not stated) , what is it?
Response: 17.5

Query: And then C=C1c2c(Cl)ccc(O)c2C(O)=C2C(=O)[C@]3(O)C(O)=C(C(N)=O)C(=O)[C@@H](N(C)C)[C@@H]3[C@@H](O)C12 (some centres not stated) , what is it?
Response: 102

###

test: VP16 transactivation reporter inhibitors, counter-screen for LRH-1 inverse agonist project, cell-based, luminescence, high throughput (AID 651615); details: Gal4-VP16 luciferase reporter cells, at 3.6 µM, hits give high values
endpoint_name: inhibition (%)
Give the number; % is assumed, so skip it.

[[record]]
compound = "OC[C@@H]1CN(Cc2ccc(-c3ccccc3)cc2)C[C@H](n2cnc3c(NC4CCC4)ncnc32)O1"
measure_unit = "%"
value = 56

[[record]]
compound = "Cc1ccc(NC(=O)CCl)c(C)c1"
measure_unit = "%"
value = -43.6

[[record]]
compound = "COC(=O)c1ccc(NC(=O)CSc2nncn2-c2cccnc2)cc1"
measure_unit = "%"
value = 0.63


Query: What does the record list as inhibition for `COc1ccc(C)cc1NC(=O)c1nnn(Cc2cccc(C(F)(F)F)c2)c1N` ?
Response: 60.3

Query: And then `CCN(CC)c1ccc(/C=N/NC(=O)c2c(Cl)cnn2C)c(O)c1` , what is it?
Response: 60.9

Query: And then Cc1ccc(NC(=O)COC(=O)C(NS(=O)(=O)c2ccc(Cl)cc2)C(C)O)c(Br)c1 (configuration not stated) , what is it?
Response: -12.9

###

target: Nuclear receptor coactivator 1 (Homo sapiens); assay: SRC1 coactivator transcriptional activity inhibitors, confirmation, cell-based, luminescence, quadruplicate (AID 588820); conditions: HEK293 GAL4-SRC1 luciferase reporter, at 3.6 µM, hits give high values;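 note: 0% = DMSO wells and 100% = gossypol 36 µM treated wells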
Overview of recorded inhibition for various molecules
Give the number; % is assumed, so skip it.

[[record]]
molecule = "O=C(COC(=O)CCC(=O)c1ccccc1)Nc1nnc(-c2ccccc2)o1"
study_target = "Nuclear receptor coactivator 1 (Homo sapiens)"
value = -19.6

[[record]]
molecule = "Nc1ncnc2c(C3OC(CO)C(O)C3O)scc12 (stereo unspecified)"
study_target = "Nuclear receptor coactivator 1 (Homo sapiens)"
value = 78.5

[[record]]
molecule = "NNC(=O)c1cnn(Cc2ccccc2)c1N"
study_target = "Nuclear receptor coactivator 1 (Homo sapiens)"
value = -14.9

[[record]]
molecule = "O=C1C=C(NCCc2cc(Br)c(O)c(Br)c2)C(=O)c2ncccc21"
study_target = "Nuclear receptor coactivator 1 (Homo sapiens)"
value = -170

[[record]]
molecule = "Cc1ccc(S(=O)(=O)N(C)c2ccc(C(=O)Nc3ccccc3C(=O)N3CCOCC3)cc2)cc1"
study_target = "Nuclear receptor coactivator 1 (Homo sapiens)"
value = -10.1


Query: What does the record list as inhibition for `COc1ccccc1N(C(=O)CCl)c1cn(C(C)=O)c2ccccc12` ?
Response: 27.2

Query: And then `Cc1ccc(-c2cc3cccc[n+]3cc2-c2ccc(C)cc2)cc1` , what is it?
Response: 35.9

Query: And then `Cc1c(C)c2cccnc2c2ncccc12` , what is it?
Response: 72.8

Query: And then `COc1ccc(-c2cncnc2-c2ccc(OC)cc2O)cc1` , what is it?
Response: 57.1

Query: And then `CCC(=O)Nc1cc2nn(-c3ccc(C)cc3)nc2cc1C` , what is it?
Response: -102

Query: And then `CCOC(=O)c1c(NC(=O)c2c(-c3ccccc3)noc2C)sc(C)c1-c1ccccc1` , what is it?
Response: 39.9

###

tested on: transactivating tegument protein VP16 (Human herpesvirus 1), Gal4-VP16 luciferase reporter; experiment: VP16 transactivation inhibitors, counter-screen for SRC3 inhibitor project, cell-based, luminescence, high throughput (AID 588794); conditions: mammalian cells, VP16-driven luciferase reporter luminescence; at 3.6 µM
Active and inactive are the calls of the source. Cut-off read from the data, not from the text of the source: active = inhibition above about 30%; inactive = the rest.
Reply using exactly one outcome from active, inactive

[[record]]
query_smiles = "O=C(N/N=C/c1cc(Cl)ccc1O)C(=O)Nc1ccccc1OC(F)(F)C(F)F"
class_assignment = "active"

[[record]]
query_smiles = "COc1ccc2cc3c(N)nn(C(=O)c4ccc(F)cc4)c3nc2c1"
class_assignment = "active"

[[record]]
query_smiles = "CS(=O)(=O)N(CCC#N)Cc1ccc(/C=C2\\C(=O)Nc3ccccc32)o1"
class_assignment = "active"

[[record]]
query_smiles = "Cc1nc2sc(C(N)=O)c(N)c2c2c1CCCC2"
class_assignment = "active"

[[record]]
query_smiles = "CN(C)c1ccc(CNC(=O)CCNS(=O)(=O)c2cc(Br)cnc2N)cc1"
class_assignment = "inactive"


Shift focus to the following entry.
Query: For `Cc1cc(/C=N/n2cnnc2)c(C)n1-c1ccc(OCc2ccc(Cl)cc2Cl)cc1` , what call appears in the results of this test?
Response: active
